Reported EC50 values for a set of molecules
# assayed.target: APJ receptor (Homo sapiens (Human), UniProt P35414)
# Sequence (P35414 whole entry): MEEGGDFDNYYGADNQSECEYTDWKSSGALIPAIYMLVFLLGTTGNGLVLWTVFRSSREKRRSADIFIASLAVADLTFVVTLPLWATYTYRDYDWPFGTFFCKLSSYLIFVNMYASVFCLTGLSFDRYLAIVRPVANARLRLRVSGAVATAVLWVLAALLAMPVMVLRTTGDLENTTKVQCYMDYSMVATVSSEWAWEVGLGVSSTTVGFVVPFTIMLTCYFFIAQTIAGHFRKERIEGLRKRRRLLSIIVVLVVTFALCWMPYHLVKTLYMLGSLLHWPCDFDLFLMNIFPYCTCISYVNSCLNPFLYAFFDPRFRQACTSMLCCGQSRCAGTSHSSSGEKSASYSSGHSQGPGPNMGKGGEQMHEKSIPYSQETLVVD
# procedure.details: [35S]GTPγS binding assay on membranes from CHO cells stably expressing human APJ receptor
# test.parameters: membranes of CHO cells stably expressing human APJ receptor, means of several independent experiments, read-out: Activity hAPJ SPA EC50 IP
Return type: number; implicit unit nM.

# annotated cases, reported EC50 shown
>>> measured_result("COc1cccc(OC)c1-n1c(NS(=O)(=O)c2cccc([C@@H](C)O)c2)nnc1-c1ccc(C)o1 (single isomer, unassigned)")
32
>>> measured_result("COc1cccc(OC)c1-n1c(NS(=O)(=O)[C@H](C)[C@@H](O)c2ccnc3c2OCCC3)nnc1-c1ccc(C)o1 (single isomer, unassigned)")
5.5
>>> measured_result("COc1cccc(OC)c1-n1c(NS(=O)(=O)[C@H]2C[C@@H](O)CN(c3ncc(F)cn3)C2)nnc1-c1ccc(C)o1 (single isomer, unassigned) [Example 323.0]")
0.2

Which EC50 value is on record for Cc1ccc(-c2nnc(NS(=O)(=O)[C@@H](C)Cc3ncc(F)cn3)n2C2CC2)o1 (racemic) ?
610

What do we get for COc1cccc(OC)c1-n1c(NS(=O)(=O)CCc2ncc(C)cn2)nnc1-c1ccco1 ?
6.6

What do we get for COc1cccc(OC)c1-n1c(NS(=O)(=O)[C@H](C)[C@H](O)c2cccc(C)n2)nnc1-c1ccc(C)o1 (stereo in doubt) ?
0.41

What do we get for COc1cccc(OC)c1-n1c(NS(=O)(=O)CCc2ccc(Cl)cc2)nnc1-c1ccco1 ?
7.8

What do we get for COc1cccc(OC)c1-n1c(NS(=O)(=O)CCc2ncc(Cl)cc2-c2ccncc2)nnc1-c1ccco1 ?
0.31

What do we get for COc1cccc(OC)c1-n1c(NS(=O)(=O)[C@H](C)[C@@H](O)c2ncc(F)cn2)nnc1-c1ccc(C)o1 (racemic) [Example 96.0] ?
0.34

What do we get for COc1cccc(OC)c1-n1c(NS(=O)(=O)[C@@H](C)[C@@](C)(O)c2ncc(F)cn2)nnc1-c1ccc(C)o1 ?
0.81

What do we get for COc1cccc(OC)c1-n1c(NS(=O)(=O)CCc2ccc(C#N)cn2)nnc1-c1ccc(C)o1 ?
0.29

What do we get for COc1cccc(OC)c1-n1c(NS(=O)(=O)[C@@H](C)[C@H](O)c2cccc3ccnn23)nnc1-c1ccc(C)o1 (single isomer, unassigned) [Example 267.0] ?
0.43

What do we get for COc1cnc([C@@H](O)[C@H](C)S(=O)(=O)Nc2nnc(-c3ccc(C)o3)n2-c2c(OC)cccc2OC)cn1 (single isomer, unassigned) ?
0.13

What do we get for COc1cccc(OC)c1-n1c(NS(=O)(=O)[C@@H](C)[C@H](O)c2cn3ccccc3n2)nnc1-c1ccc(C)o1 (single isomer, unassigned) [Example 289.0] ?
4.9

What do we get for COc1cccc(OC)c1-n1c(NS(=O)(=O)[C@H](C)Cc2ccc(Cl)cc2)nnc1-c1ccco1 (single isomer, unassigned) ?
2.3

What do we get for COc1cccc(OC)c1-n1c(NS(=O)(=O)[C@H](C)Cc2ccc(C#N)cn2)nnc1-c1ccc(C)o1 (single isomer, unassigned) [Example 33.0] ?
2.4
